The origin of these recorded values is paper PMC8037809.

Experiment: biomimetic chromatography (BMC, IAM, CHOL) with the QSAR equation, compared with computational logBB
Settings: from biomimetic and computational studies
Protocol: To calculate the logBB values for the tested saponins, the QSAR model previously obtained was used. […] Chromatographic biomimetic methods, including IAM, BMC, and CHOL, were used to determine BBB permeability of the tested triterpenoid saponins. For this purpose, the values of logkw, being the logarithm of retention factor extrapolated to pure water, were determined. These values were compared with the logBB values calculated in silico and those obtained using the QSAR model (Equation (2)). […]
Measure Name: ability to cross the BBB (conclusion)

CC(C)=C[C@H]1C[C@](C)(O)[C@@H]2[C@H]3CC[C@@H]4[C@@]5(C)CC[C@H](O[C@@H]6O[C@H](CO)[C@@H](O)[C@H](O[C@@H]7O[C@H](CO)[C@@H](O)[C@H](O)[C@H]7O)[C@H]6O[C@@H]6O[C@@H](CO)[C@H](O)[C@H]6O)C(C)(C)[C@@H]5CC[C@@]4(C)[C@@]34CO[C@@]2(C4)O1 [Bacoside A]
can penetrate the BBB
CC1(C)CCC2(C(=O)OC3OC(COC4OC(CO)C(O)C(O)C4O)C(O)C(O)C3O)CCC3(C)C(=CCC4C5(C)CCC(OC6OCC(O)C(O)C6O)C(C)(CO)C5CCC43C)C2C1 (stereo not shown)
can penetrate the BBB
CC1(C)CC[C@]2(C(=O)O)CC[C@]3(C)C(=CC[C@@H]4[C@@]5(C)C[C@@H](O)[C@H](O)C(C)(C)[C@@H]5CC[C@]43C)[C@@H]2[C@@H]1O
can penetrate the BBB
